Assay: ovarian cancer cell viability with rucaparib, profiling panel, oncology-focused library, rucaparib conditional (AID 1508598)
Details: patient-derived ovarian cancer cells, CellTiter-Glo viability, 144 h; at 1.25 µM; OCI-P5x cells; with rucaparib 20 µM; stronger effect = lower value; 100% = cells with rucaparib alone
Reported viability values for the following molecules.
Give the quantity in %, number only.

Worked set:
CNC(=O)c1ccccc1Sc1ccc2c(/C=C/c3ccccn3)n[nH]c2c1
95.4
Cc1ccc(Nc2nccc(N(C)c3ccc4c(C)n(C)nc4c3)n2)cc1S(N)(=O)=O
87.9
Cc1cc(O)c2c(c1)C(=O)c1cccc(O)c1C2=O
111
CN(N=O)C(=O)N[C@@H]1[C@@H](O)[C@H](O)[C@@H](CO)O[C@@H]1O
87.8

// switching to the query molecule
Provide only the value of recorded viability for COc1c(C)c2c(c(O)c1C/C=C(\C)CCC(=O)OCCN1CCOCC1)C(=O)OC2
74.3

====

Assay: ovarian cancer cell viability with rucaparib, profiling panel, oncology-focused library, rucaparib conditional (AID 1508598)
Conditions: patient-derived ovarian cancer cells, CellTiter-Glo viability, 144 h; at 0.313 µM; OCI-P5x cells; without rucaparib; stronger effect = lower value
Reported viability values for the following molecules.
Give the quantity in %, number only.

Cc1cc(O)c2c(c1)C(=O)c1cccc(O)c1C2=O
109
COc1c(C)c2c(c(O)c1C/C=C(\C)CCC(=O)O)C(=O)OC2
62.1
O=C(NOCC1CC1)c1ccc(F)c(F)c1Nc1ccc(I)cc1Cl
92.7
O=C(CCCCCCC(=O)Nc1ccccc1)NO
46.1

Provide only the value of recorded viability for CN(N=O)C(=O)N[C@@H]1[C@@H](O)[C@H](O)[C@@H](CO)O[C@@H]1O
113

Provide only the value of recorded viability for CCc1ccc(CCOc2ccc(CC3SC(=O)NC3=O)cc2)nc1 (stereo not given)
113

Provide only the value of recorded viability for O=c1[nH]c(=O)n([C@H]2CCCO2)cc1F
16.2

Provide only the value of recorded viability for FC(F)c1nc2ccccc2n1-c1nc(N2CCOCC2)nc(N2CCOCC2)n1
84.5

Provide only the value of recorded viability for COc1cc(Nc2c(C#N)cnc3cc(OCCCN4CCN(C)CC4)c(OC)cc23)c(Cl)cc1Cl
91

Provide only the value of recorded viability for COc1c(C)c2c(c(O)c1C/C=C(\C)CCC(=O)OCCN1CCOCC1)C(=O)OC2
63.2

====

Target: ATP-dependent translocase ABCB1 (Homo sapiens)
Assay: MDR1 (ABCB1) efflux transporter inhibition, cell-based (AID 377)
Conditions: MDR1-expressing cells, fluorescent substrate accumulation slope; concentration not given here
Results filed as inconclusive are left out. The source made the active and inactive calls. Rule as the data show it: active = fluorescence slope change above about 50%; inconclusive = mostly about 31% to 49%; inactive = weaker than that.
Reply using exactly one outcome from active, inactive

Look over these answered cases.
CCN1CCN(C(=O)N[C@@H](C(=O)N[C@@H]2C(=O)N3[C@@H]2SC(C)(C)[C@@H]3C(=O)O)c2ccccc2)C(=O)C1=O
inactive
C=C1CC[C@H](O)C/C1=C/C=C1\CCC[C@]2(C)[C@@H]([C@H](C)/C=C/[C@H](C)C(C)C)CC[C@@H]12
active
CC[C@H]1OC(=O)[C@H](C)[C@@H](O[C@H]2C[C@@](C)(OC)[C@@H](O)[C@H](C)O2)[C@H](C)[C@@H](O[C@@H]2O[C@H](C)C[C@H](N(C)C)[C@H]2O)[C@](C)(O)C[C@@H](C)C(=O)[C@H](C)[C@@H](O)[C@]1(C)O
active

// return assay outcome for CC(C)NCC(O)COc1cccc2[nH]ccc12 (centres undefined)
active

// return assay outcome for COc1c2ccoc2nc2c(OC)c(OCC(O)C(C)(C)O)ccc12 (centres undefined)
inactive

// return assay outcome for CC(C(=O)O)c1cccc(C(=O)c2ccccc2)c1 (centres undefined)
active

// return assay outcome for NS(=O)(=O)c1cc(Cl)c(Cl)c(S(N)(=O)=O)c1
active

// return assay outcome for O=C(CCCN1CCC(O)(c2ccc(Cl)cc2)CC1)c1ccc(F)cc1
inactive

// return assay outcome for Cc1ccc(N(CC2=NCCN2)c2cccc(O)c2)cc1
active

====

Assay: ovarian cancer cell viability with rucaparib, profiling panel, oncology-focused library, rucaparib conditional (AID 1508598)
Details: patient-derived ovarian cancer cells, CellTiter-Glo viability, 144 h; at 0.000305 µM; OCI-C5x cells; without rucaparib; stronger effect = lower value
Active and inactive are the calls of the source.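 The calls were made as follows: active = normalized viability below 100% at a tested concentration; inactive = the rest.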
Reported viability values for the following molecules.

Worked set:
C#Cc1cccc(Nc2ncnc3cc(OCCOC)c(OCCOC)cc23)c1
109% (inactive)
O=C(NOCC1CC1)c1ccc(F)c(F)c1Nc1ccc(I)cc1Cl
119% (inactive)

Provide only the value of recorded viability for CCCC(CCC)C(=O)O
105% (inactive)

Provide only the value of recorded viability for Clc1ccc(Nc2nnc(Cc3ccncc3)c3ccccc23)cc1
86.5% (active)

Provide only the value of recorded viability for COc1cc(Nc2c(C#N)cnc3cc(OCCCN4CCN(C)CC4)c(OC)cc23)c(Cl)cc1Cl
107% (inactive)

Provide only the value of recorded viability for O=c1[nH]c(=O)n([C@H]2CCCO2)cc1F
122% (inactive)

====

Experiment: sensitizers of A549 cells to miR-34 induction, primary screen, imaging, A549 dox-inducible miR-34, nuclei and caspase counts (AID 1347080)
Details: A549 miR-34 inducible, Hoechst nuclei count, 48 h; stronger effect = lower value; cell number ratio, induced over uninduced
The source made the active and inactive calls.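 The calls were made as follows: active = compounds whose cell count with miR-34 switched on is under 0.7 times the count with it off; inactive = the rest.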
reported_property: fold change

COc1cc(O)c2c(c1)C(=O)c1cc(C)cc(O)c1C2=O
0.975 (inactive)
C[C@@H](O[C@H]1OCCN(Cc2n[nH]c(=O)[nH]2)[C@H]1c1ccc(F)cc1)c1cc(C(F)(F)F)cc(C(F)(F)F)c1
0.959 (inactive)
FC(F)c1nc2ccccc2n1-c1nc(N2CCOCC2)nc(N2CCOCC2)n1
0.814 (inactive)

Provide only the value of recorded fold change for Nc1ccn([C@@H]2O[C@H](CO)[C@@H](O)C2O)c(=O)n1 (stereo not given in full)
1.11 (inactive)

Provide only the value of recorded fold change for Cl/C(=C\n1cncn1)c1ccc(Cl)cc1Cl
0.89 (inactive)

====

Reported inhibition values for the following molecules.
Experiment: UWB1.289_BRCA1 ovarian cancer growth, cell-based, BGB or cisplatin combinations (AID 1671459)
Settings: UWB1.289 BRCA1 ovarian carcinoma, drug combinations, BGB combination, concentration series, at 5 µM, stronger effect = higher value

Worked set:
Nc1ncn([C@H]2C[C@H](O)[C@@H](CO)O2)c(=O)n1
32.1%
Cc1ccc2nc(N)[nH]c(=O)c2c1Sc1ccncc1
-8.1%
O=c1c(O)c(-c2ccc(O)c(O)c2)oc2cc(O)ccc12
14.5%

// switching to the query molecule
Provide only the value of recorded inhibition for N=C(N=C(N)N)N1CCOCC1
1.52%

====

Tested on: Aerobactin synthetase IucA (Klebsiella pneumoniae)
Assay: IucA aerobactin synthetase inhibitors, biochemical, Tocris library, absorbance (AID 1345561);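 also: 100% = enzyme without compound and 0% = no enzyme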
Conditions: purified IucA enzyme assay, absorbance (OD) read-out; stronger effect = lower value; concentration not given here
Reported remaining activity values for the following compounds.
Give the quantity in %, number only.

Worked set:
Cc1cccc(Nc2cc(Cl)nc(SCC(=O)O)n2)c1C
107
CN1C[C@H](C(=O)N[C@]2(C)O[C@@]3(O)[C@@H]4CCCN4C(=O)[C@H](Cc4ccccc4)N3C2=O)C[C@@H]2c3cccc4[nH]cc(c34)C[C@H]21
86.1
O=c1cc(-c2ccc(O)cc2)oc2cc(O)cc(O)c12
107
CCN1CCC[C@H]1CNC(=O)c1c(OC)ccc(Br)c1OC
89

// switching to the query compound
Provide only the value of recorded remaining activity for O=C(O)COCCN1CCN(C(c2ccccc2)c2ccc(Cl)cc2)CC1 (stereo not drawn)
109

====

Test: stimulators of nuclear beta-catenin in C2C12, primary screen, imaging, WNT3A-conditioned medium, mouse C2C12, NPC library (AID 1117326)
Settings: at 10 µM, stronger effect = higher value
Calls of active or inactive are those of the source. No stated cut-off is given here; in the data, active means nuclear beta-catenin stimulation mostly above about 4.2% (no sharp cut-off); inactive means mostly below about 10%.
reported_property: nuclear beta-catenin stimulation

Provide only the value of recorded nuclear beta-catenin stimulation for CC(=O)[C@H]1CC[C@H]2[C@@H]3C=CC4=CC(=O)CC[C@@]4(C)[C@@H]3CC[C@]12C
4.5% (inactive)

Provide only the value of recorded nuclear beta-catenin stimulation for CCCC(=O)OCOC(=O)C1=C(C)NC(C)=C(C(=O)OC)C1c1cccc(Cl)c1Cl (stereo unspecified)
15.7% (inactive)

Provide only the value of recorded nuclear beta-catenin stimulation for C=CCc1cc(OC)c(O)c(C(=O)NCCO)c1
1.7% (inactive)

Provide only the value of recorded nuclear beta-catenin stimulation for CN1CCN(C2Cc3ccccc3Sc3ccc(Cl)cc32)CC1 (stereo unspecified)
5.2% (inactive)

Provide only the value of recorded nuclear beta-catenin stimulation for CC(O)CN(CCN(CC(C)O)CC(C)O)CC(C)O (stereo unspecified)
2% (inactive)

Provide only the value of recorded nuclear beta-catenin stimulation for CN1CCCN(C(c2ccccc2)c2ccc(Cl)cc2)CC1 (stereo unspecified)
3.7% (inactive)
